Catalogue of melting point readings, one per entry.

>  <Compound>
Cc1ccc(NC(=O)c2ccc(CN3C[C@@H](N(C)C)C[C@H]3C)c(C(F)(F)F)c2)cc1Nc1nccc(-c2cncnc2)n1.Cl [Example 60]

>  <melting point>
188 to 193 °C

$$$$
>  <Compound>
Cc1ccc(NC(=O)c2ccc(CN3CCN(C)[C@H](C)C3)c(C(F)(F)F)c2)cc1Nc1nccc(-c2cncnc2)n1.Cl [Example 71]

>  <melting point>
186 to 194 °C

$$$$
>  <Compound>
Cc1ccc(NC(=O)c2ccc(CN3CC[C@@H](CN(C)C)C3)c(C(F)(F)F)c2)cc1Nc1nccc(-c2cncnc2)n1.Cl [Example 81]

>  <melting point>
114 to 122 °C (dec.)

$$$$
>  <Compound>
Cc1ccc(NC(=O)c2ccc(CN3CC[C@H](CN(C)C)C3)c(C(F)(F)F)c2)cc1Nc1nccc(-c2cncnc2)n1.Cl [Example 79]

>  <melting point>
114 to 122 °C (dec.)

$$$$
>  <Compound>
Cc1ccc(NC(=O)c2ccc(CN3CCN[C@H](C)C3)c(C(F)(F)F)c2)cc1Nc1nccc(-c2cncnc2)n1.Cl [Example 56]

>  <melting point>
254 to 258 °C

$$$$
>  <Compound>
Cc1ccc(NC(=O)c2ccc(CN3CCN(C)CC3)c(C(F)(F)F)c2)cc1Nc1cc(-c2cccnc2)ccn1 [Example 28]

>  <melting point>
241 to 242 °C (dec.)

$$$$
>  <Compound>
COc1cc(C(=O)Nc2ccc(C)c(Nc3nccc(-c4cncc(Br)c4)n3)c2)ccc1CN1CCN(C)CC1.Cl [Example 14]

>  <melting point>
168 to 169 °C (dec.)

$$$$
>  <Compound>
Cc1ccc(NC(=O)c2ccc(CN3CC(N(C)C)C3)c(C(F)(F)F)c2)cc1Nc1nccc(-c2cncnc2)n1.Cl [Example 77]

>  <melting point>
159 to 167 °C (dec.)

$$$$
>  <Compound>
Cc1ccc(NC(=O)c2ccc(CC3CCN(C)CC3)c(C(F)(F)F)c2)cc1Nc1nccc(-c2cncnc2)n1.Cl [Example 8]

>  <melting point>
227 to 231 °C (dec.)

$$$$
>  <Compound>
Cc1ccc(NC(=O)c2ccc(CN3CCN(C)CC3)c(C(F)(F)F)c2)cc1Nc1cc(-c2cccnc2)ncn1.Cl [Example 31]

>  <melting point>
190 to 194 °C (dec.)

$$$$
>  <Compound>
Cc1ccc(NC(=O)c2ccc(CN3CCNC(C(N)=O)C3)c(C(F)(F)F)c2)cc1Nc1nccc(-c2cncnc2)n1.Cl (centres unmarked) [Example 45]

>  <melting point>
205 to 208 °C

$$$$
>  <Compound>
Cc1ccc(NC(=O)c2ccc(CN3CCN(C)CC3)c(C(F)(F)F)c2)cc1Nc1nc(-c2ccncc2)cs1.Cl [Example 75]

>  <melting point>
186 to 188 °C

$$$$
>  <Compound>
Cc1ccc(NC(=O)c2ccc(CN3CC(CN(C)C)C3)c(C(F)(F)F)c2)cc1Nc1nccc(-c2cncnc2)n1.Cl [Example 54]

>  <melting point>
142 to 152 °C (dec.)

$$$$
>  <Compound>
Cc1ccc(NC(=O)c2cc(Cl)c(CN3CC[C@H](N(C)C)C3)c(Cl)c2)cc1Nc1nccc(-c2cncnc2)n1.Cl [Example 12]

>  <melting point>
161 to 170 °C (dec.)

$$$$

----------
Here the recorded melting point is given for each entry.
Experimental readout: melting point

>  <Line notation>
CCN1CCN(Cc2ccc(C(=O)Nc3ccc(C)c(Nc4nccc(-c5cncnc5)n4)c3)cc2C(F)(F)F)CC1.Cl

>  <Experimental readout>
melting point

>  <Reading>
256 to 259 °C (dec.)

$$$$
>  <Line notation>
Cc1ccc(NC(=O)c2ccc(CN3CCN(CCO)CC3)c(C(F)(F)F)c2)cc1Nc1nccc(-c2cncnc2)n1.Cl

>  <Experimental readout>
melting point

>  <Reading>
248 to 255 °C (dec.)

$$$$
>  <Line notation>
Cc1ccc(NC(=O)c2ccc(OC3CCN(C)CC3)c(C(F)(F)F)c2)cc1Nc1nccc(-c2cncnc2)n1.Cl

>  <Experimental readout>
melting point

>  <Reading>
≥ 275 °C

$$$$
>  <Line notation>
CCN1CCN(Cc2ccc(C(=O)Nc3ccc(C)c(Nc4nccc(-c5cncc(Br)c5)n4)c3)cc2C(F)(F)F)CC1.Cl

>  <Experimental readout>
melting point

>  <Reading>
166 to 172 °C (dec.)

$$$$
>  <Line notation>
CCc1cc(C(=O)Nc2ccc(C)c(Nc3nccc(-c4cncnc4)n3)c2)ccc1CN1CCN(C)CC1.Cl

>  <Experimental readout>
melting point

>  <Reading>
253 to 255 °C (dec.)

$$$$
>  <Line notation>
Cc1ccc(NC(=O)c2ccc(CN3CCN(C)CC3)c(Cl)c2)cc1Nc1nccc(-c2cncnc2)n1.Cl

>  <Experimental readout>
melting point

>  <Reading>
197 to 200 °C

$$$$
>  <Line notation>
Cc1ccc(NC(=O)c2ccc(CN3CCNCC3)c(C(F)(F)F)c2)cc1Nc1nccc(-c2cncc(Br)c2)n1.Cl

>  <Experimental readout>
melting point

>  <Reading>
176 to 182 °C (dec.)

$$$$

----------
Counter-ions that a name gives are not always drawn.
Recorded melting point for the following compounds

>  <Compound>
Cc1ccc(NC(=O)c2ccc(CN3CCN(CCF)CC3)c(C(F)(F)F)c2)cc1Nc1nccc(-c2cncnc2)n1.Cl

>  <melting point>
213 to 233 °C (dec.)

$$$$
>  <Compound>
Cc1ccc(NC(=O)c2ccc(CN3CCN(C)C(C(N)=O)C3)c(C(F)(F)F)c2)cc1Nc1nccc(-c2cncnc2)n1.Cl (stereo not drawn)

>  <melting point>
203 to 208 °C

$$$$
>  <Compound>
Cc1ccc(NC(=O)c2ccc(C=C3CCN(C)CC3)c(C(F)(F)F)c2)cc1Nc1nccc(-c2cncnc2)n1.Cl

>  <melting point>
202 to 206 °C (dec.)

$$$$
>  <Compound>
Cc1ccc(NC(=O)c2ccc(CN3C[C@@H](C)[C@H](N(C)C)C3)c(C(F)(F)F)c2)cc1Nc1nccc(-c2cncnc2)n1.Cl

>  <melting point>
164 to 174 °C (dec.)

$$$$
>  <Compound>
Cc1ccc(NC(=O)c2ccc(CN3CCN(C)CC3)c(C(F)(F)F)c2)cc1Nc1cc(-c2cncnc2)ncn1.Cl

>  <melting point>
203 to 207 °C (dec.)

$$$$
>  <Compound>
Cc1ccc(NC(=O)c2ccc(CN3CCC[C@H](N(C)C)C3)c(C(F)(F)F)c2)cc1Nc1nccc(-c2cncnc2)n1.Cl

>  <melting point>
195 to 198 °C

$$$$
>  <Compound>
CCN1CCN(Cc2ccc(C(=O)Nc3ccc(C)c(Nc4cc(-c5cccnc5)ccn4)c3)cc2C(F)(F)F)CC1.Cl

>  <melting point>
230 to 235 °C (dec.)

$$$$
>  <Compound>
CCN1CCN(Cc2ccc(C(=O)Nc3ccc(C)c(Nc4cc(-c5cncnc5)ccn4)c3)cc2C(F)(F)F)CC1.Cl

>  <melting point>
254 to 256 °C (dec.)

$$$$
>  <Compound>
Cc1ccc(NC(=O)c2ccc(CN3CCNCC3)c(C(F)(F)F)c2)cc1Nc1nccc(-c2cncnc2)n1 (as salt: trifluoroacetate)

>  <melting point>
199 to 202 °C (dec.)

$$$$
>  <Compound>
Cc1ccc(NC(=O)c2ccc(CN3CCN(Cc4oc(=O)oc4C)CC3)c(C(F)(F)F)c2)cc1Nc1nccc(-c2cncnc2)n1.Cl

>  <melting point>
218 to 226 °C (dec.)

$$$$
>  <Compound>
CCN(CC)[C@H]1CCN(Cc2ccc(C(=O)Nc3ccc(C)c(Nc4nccc(-c5cncnc5)n4)c3)cc2C(F)(F)F)C1.Cl

>  <melting point>
200 to 202 °C

$$$$
>  <Compound>
Cc1ccc(NC(=O)c2ccc(CN3CCN(C)CC3)c(C(F)(F)F)c2)cc1Nc1cc(-c2cccnc2)ccn1 (as salt: methanesulfonate) [Example 29]

>  <melting point>
189 to 191 °C

$$$$

----------
Structures can show the parent of a compound that is named as a salt.
# reported melting point; entries follow

>  <Compound>
CN[C@H]1CCN(Cc2ccc(C(=O)Nc3ccc(C)c(Nc4nccc(-c5cncnc5)n4)c3)cc2C(F)(F)F)C1 (as salt: salt)

>  <melting point>
142 to 149 °C (dec.)

$$$$
>  <Compound>
Cc1ccc(NC(=O)c2ccc(CN3CCNCC3)c(C(F)(F)F)c2)cc1Nc1cc(-c2cccnc2)ccn1.Cl

>  <melting point>
190 to 195 °C (dec.)

$$$$
>  <Compound>
Cc1ccc(NC(=O)c2ccc(CN3CCC[C@H](N)C3)c(C(F)(F)F)c2)cc1Nc1nccc(-c2cncnc2)n1.Cl

>  <melting point>
193 to 199 °C

$$$$
>  <Compound>
Cc1ccc(NC(=O)c2ccc(CN3CCN(C)CC3)c(C(F)(F)F)c2)cc1Nc1cc(-c2cncnc2)ccn1.Cl

>  <melting point>
203 to 206 °C (dec.)

$$$$
>  <Compound>
Cc1ccc(NC(=O)c2ccc(CN3CCN(C)CC3)c(C(F)F)c2)cc1Nc1nccc(-c2cncnc2)n1.Cl

>  <melting point>
264 °C (dec.)

$$$$
>  <Compound>
Cc1ccc(NC(=O)c2ccc(CN3CC[C@H](N4CCCC4)C3)c(C(F)(F)F)c2)cc1Nc1nccc(-c2cncnc2)n1.Cl

>  <melting point>
168 to 171 °C

$$$$
>  <Compound>
Cc1ccc(NC(=O)c2ccc(CN3CCN(C)[C@@H](C)C3)c(C(F)(F)F)c2)cc1Nc1nccc(-c2cncnc2)n1.Cl

>  <melting point>
187 to 193 °C

$$$$
